Sourced from patent US20260184782A1

MEASUREMENT_TARGET: T1, recombinant human TIGIT (human, UniProt Q495A1 22-141, limits assumed)
T1 construct: recombinant human TIGIT used in Carterra SPR; also called hTIGIT
T1 sequence (looked up): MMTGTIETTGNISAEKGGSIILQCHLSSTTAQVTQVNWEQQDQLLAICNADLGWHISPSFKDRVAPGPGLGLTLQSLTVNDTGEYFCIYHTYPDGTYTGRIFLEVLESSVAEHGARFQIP
METHOD_SUMMARY: SPR Carterra, average
Consider the following binders and their measured Kd readings.

BINDER: TIGIT-SC199 (Fc fusion, VHH-Fc fusion in assay) VHH: EVQLVESGGGLVQPGGSLRLSCAASGFSSAQYAMGWFRQAPGKERELVASIDSEGRTNYADSVKGRFTISADNSKNTAYLQMNSLKPEDTAVYYCTRDGGFDPWGQGTLVTVSS
Kd, nM: 321

BINDER: TIGIT-SC55 (Fc fusion, VHH-Fc fusion in assay) VHH: EVQLVESGGGLVQPGGSLRLSCAASGFPFDDYAMGWFRQAPGKERELVAVIRWTGMNTHYADSVKGRFTISADNSKNTAYLQMNSLKPEDTAVYYCAKGIAVAGAFDYWGQGTLVTVSS
Kd, nM: 28.5

BINDER: TIGIT-SC70 (Fc fusion, VHH-Fc fusion in assay) VHH: EVQLVESGGGLVQPGGSLRLSCAASGRTFSSFAMGWFRQAPGKEREFVAAISGSGEDTYYADSVKGRFTISADNSKNTAYLQMNSLKPEDTAVYYCARWRLDRRQGFYYAMDVWGQGTLVTVSS
Kd, nM: 11.2

BINDER: TIGIT-SC82 (Fc fusion, VHH-Fc fusion in assay) VHH: EVQLVESGGGLVQPGGSLRLSCAASGSMSSNYAMGWFRQAPGKEREFVAAIDWSGGNTYYADSVKGRFTISADNSKNTAYLQMNSLKPEDTAVYYCAKWFYYGSGLYTLDVWGQGTLVTVSS
Kd, nM: 57
